- assay.target: UniProt P29990
- Sequence (P29990 1346-1475 limits assumed): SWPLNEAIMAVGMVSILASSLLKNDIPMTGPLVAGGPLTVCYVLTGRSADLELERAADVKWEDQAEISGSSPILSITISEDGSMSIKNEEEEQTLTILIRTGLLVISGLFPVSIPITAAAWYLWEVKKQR
- Sequence (P29990 1476-2093 limits assumed): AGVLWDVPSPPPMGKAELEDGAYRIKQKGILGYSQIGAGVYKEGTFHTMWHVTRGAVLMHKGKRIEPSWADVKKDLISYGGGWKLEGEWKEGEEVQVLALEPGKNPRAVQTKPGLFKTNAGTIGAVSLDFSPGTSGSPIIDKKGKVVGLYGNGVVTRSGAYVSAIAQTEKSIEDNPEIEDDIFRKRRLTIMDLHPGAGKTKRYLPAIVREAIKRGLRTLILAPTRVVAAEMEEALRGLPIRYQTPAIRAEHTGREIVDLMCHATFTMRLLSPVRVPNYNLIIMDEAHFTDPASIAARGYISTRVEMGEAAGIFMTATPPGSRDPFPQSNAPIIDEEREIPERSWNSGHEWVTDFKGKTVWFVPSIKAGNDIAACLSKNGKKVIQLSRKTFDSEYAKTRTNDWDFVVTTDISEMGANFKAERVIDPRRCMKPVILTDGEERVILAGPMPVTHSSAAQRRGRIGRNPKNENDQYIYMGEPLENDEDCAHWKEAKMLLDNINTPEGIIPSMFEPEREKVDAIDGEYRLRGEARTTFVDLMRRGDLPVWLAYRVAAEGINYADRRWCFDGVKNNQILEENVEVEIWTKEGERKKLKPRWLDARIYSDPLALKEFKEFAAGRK
- Type: functional, Thailand/16681/1984
pIC50: −log10 of the molar value.
outcome.measure: pIC50

1) Cc1nnc([C@H](C)n2cc(C3CCNCC3)c(C)n2)o1 = < 4.00
2) c1cncc([C@@H]2CN(Cc3c[nH]c4ccccc34)CCO2)c1 = < 4.00
3) Cc1c(C(=O)Nc2cc(-c3cccnc3)ccn2)c2ccccc2n1C = < 4.00
4) O=C(c1cc(Cl)ccc1NS(=O)(=O)c1ccc(Oc2ccccc2Cl)cc1)N1CC[C@H](CO)C1 = 4.04
5) O=C(Nc1ccc2c(c1)[C@H]1CC[C@H]2N1)c1cc(Cl)cc2[nH]ncc12 = < 4.00
6) NCc1cc(F)cc(NC(=O)c2cc(Cl)cc(NC(=O)OCc3ccccc3)c2)c1 = < 4.00
7) CNC(=O)[C@H](Nc1cc(CNC(=O)OC(C)(C)C)cc(C(=O)O)c1)c1cc(Cl)cc(C2CC2)c1 = < 4.00
8) Cn1ncc(C(=O)Nc2cc(CCCN)ccn2)c1O = < 4.00
9) CCN1C(=O)CCc2cc(NS(=O)(=O)c3ccc(Cl)cc3C(=O)O)ccc21 = < 4.00
10) Cc1c(C(=O)NCc2cccc(C3COC3)c2)cc(C2CC2)n1C = < 4.00
11) Cn1cc(-c2cc(CN)cc([C@@H]3C[C@H]3c3cc(Cl)cc(NC(=O)OCc4ccccc4)c3)c2)cn1 = 4.38
12) Cc1c(C(=O)Nc2cccc(-c3ccccc3)c2)cc(C2CC2)n1C = < 4.00
13) N[C@H]1CCc2cc(NC(=O)c3cc(Cl)cc(NC(=O)OCc4ccccc4)c3)ccc21 = 4.35
14) O=C(Nc1ccc(Cl)cc1C(=O)Nc1cccc(C2CCNCC2)c1)OCc1ccccc1 = < 4.00
15) N#Cc1cccc(-c2nc3c(C(=O)Nc4ccc(F)cc4)cc(Cl)cc3[nH]2)c1 = < 4.00
16) CC(C)NC(=O)[C@H](Nc1ccc2c(c1)CN(C)C2)c1cc(Cl)cc2[nH]ncc12 = < 4.00
17) NCc1cccc(NC(=O)[C@H](NC(=O)OCc2ccccc2)c2cccc(-c3cncc(F)c3)c2)c1 = < 4.00
18) CS(=O)(=O)c1cc(CN)cc(NC(=O)c2cc(Cl)cc(NC(=O)OCc3ccccc3)c2)c1 = < 4.00
19) CCc1nc(C)c(C(=O)Nc2cccc(-c3nnn[nH]3)c2)s1 = < 4.00
20) CSC1(C(=O)N[C@H](CC(=O)Nc2cccc(CN)c2)c2ccc(OCc3ccccc3)c(Br)c2)CCC1 = 4.46
